# TARGET DESC: Integrin alpha-IIb/beta-3 (Homo sapiens, UniProt P08514+P05106)
# Sequence (P05106 27-788 limits assumed): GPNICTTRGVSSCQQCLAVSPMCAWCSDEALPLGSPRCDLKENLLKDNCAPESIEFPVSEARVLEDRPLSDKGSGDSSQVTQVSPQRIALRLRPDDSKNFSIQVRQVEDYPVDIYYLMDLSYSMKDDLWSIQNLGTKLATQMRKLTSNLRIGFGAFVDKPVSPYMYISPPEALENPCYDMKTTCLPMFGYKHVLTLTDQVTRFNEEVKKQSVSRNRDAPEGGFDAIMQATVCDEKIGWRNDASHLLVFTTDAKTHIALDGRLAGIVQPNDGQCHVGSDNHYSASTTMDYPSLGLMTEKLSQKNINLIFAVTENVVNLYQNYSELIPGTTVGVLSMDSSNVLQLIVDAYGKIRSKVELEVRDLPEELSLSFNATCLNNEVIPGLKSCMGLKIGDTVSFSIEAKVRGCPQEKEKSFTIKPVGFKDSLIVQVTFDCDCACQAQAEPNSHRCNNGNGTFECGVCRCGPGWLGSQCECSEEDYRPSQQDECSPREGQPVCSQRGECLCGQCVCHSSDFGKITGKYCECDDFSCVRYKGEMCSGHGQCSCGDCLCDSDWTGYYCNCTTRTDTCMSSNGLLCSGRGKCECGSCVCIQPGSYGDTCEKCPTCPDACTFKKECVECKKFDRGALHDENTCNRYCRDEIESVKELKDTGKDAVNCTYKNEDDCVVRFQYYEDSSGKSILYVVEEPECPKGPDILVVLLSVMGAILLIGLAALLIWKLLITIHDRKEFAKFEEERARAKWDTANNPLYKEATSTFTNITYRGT
# Sequence (P08514 32-887 limits assumed): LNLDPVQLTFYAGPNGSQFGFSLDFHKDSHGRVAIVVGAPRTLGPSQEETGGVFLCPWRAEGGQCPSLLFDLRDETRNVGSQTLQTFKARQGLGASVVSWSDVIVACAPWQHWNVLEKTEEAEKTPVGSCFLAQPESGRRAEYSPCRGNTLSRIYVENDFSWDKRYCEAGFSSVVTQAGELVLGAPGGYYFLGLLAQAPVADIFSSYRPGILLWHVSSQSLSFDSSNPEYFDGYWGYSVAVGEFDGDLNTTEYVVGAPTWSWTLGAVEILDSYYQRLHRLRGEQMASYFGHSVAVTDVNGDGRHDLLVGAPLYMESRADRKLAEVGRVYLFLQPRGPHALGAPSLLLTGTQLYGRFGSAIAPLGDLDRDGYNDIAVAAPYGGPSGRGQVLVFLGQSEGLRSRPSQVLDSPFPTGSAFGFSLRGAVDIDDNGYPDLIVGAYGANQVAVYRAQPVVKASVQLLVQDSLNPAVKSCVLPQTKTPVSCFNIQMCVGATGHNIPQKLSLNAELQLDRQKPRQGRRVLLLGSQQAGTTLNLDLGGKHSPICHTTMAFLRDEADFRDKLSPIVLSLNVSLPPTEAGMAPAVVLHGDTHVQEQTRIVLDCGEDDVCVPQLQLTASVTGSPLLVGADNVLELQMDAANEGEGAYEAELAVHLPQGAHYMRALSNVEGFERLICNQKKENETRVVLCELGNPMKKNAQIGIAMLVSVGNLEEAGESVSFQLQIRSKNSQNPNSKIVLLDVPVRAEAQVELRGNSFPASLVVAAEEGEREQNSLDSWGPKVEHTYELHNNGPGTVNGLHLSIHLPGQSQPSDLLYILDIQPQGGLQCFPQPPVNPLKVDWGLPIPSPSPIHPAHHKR
# Sequence (P08514 891-1039 limits assumed): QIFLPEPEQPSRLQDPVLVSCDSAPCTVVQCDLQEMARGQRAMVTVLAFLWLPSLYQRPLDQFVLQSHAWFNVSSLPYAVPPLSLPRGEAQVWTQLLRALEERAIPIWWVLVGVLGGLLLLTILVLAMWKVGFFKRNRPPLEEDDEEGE
# TEST METHOD NOTES: Inhibition of platelet aggregation in human gel-purified platelets containing fibrinogen (GPP+Fg).
pIC50: −log10 of the molar value.
Label Met when pIC50 is at or above 5; anything below gets Not met.

Sample answers from the record:
Could you please find out whether O=C(N[C@@H](CNC(=O)C1=NOC(CCCCNc2ccccn2)C1)C(=O)O)OCc1ccccc1 (some centres undefined) has pIC50 that meets 5 or exceeds it?
Not met

Could you please find out whether Cc1cc(C)c(S(=O)(=O)N[C@@H](CNC(=O)C2=NOC(CCNC(=O)Nc3ncc[nH]3)C2)C(=O)O)c(C)c1 (some centres undefined) has pIC50 that meets 5 or exceeds it?
Not met

Next:
Could you please find out whether Cc1cc(C)c(S(=O)(=O)N[C@@H](CNC(=O)C2=NOC(CCCCNC3=NCCN3)C2)C(=O)O)c(C)c1 (some centres undefined) has pIC50 that meets 5 or exceeds it?
Met

Could you please find out whether Cc1cc(C)c(S(=O)(=O)N[C@@H](CNC(=O)C2=NOC(CCCCNc3nccc4ccccc34)C2)C(=O)O)c(C)c1 (some centres undefined) has pIC50 that meets 5 or exceeds it?
Met

Could you please find out whether Cc1cc(C)c(S(=O)(=O)N[C@@H](CNC(=O)C2=NOC(CCCCNc3ccccn3)C2)C(=O)O)c(C)c1 (some centres undefined) has pIC50 that meets 5 or exceeds it?
Met

Could you please find out whether Cc1cc(-c2ccccc2)cc(C)c1S(=O)(=O)N[C@@H](CNC(=O)C1=NOC(CCCCNc2ncc[nH]2)C1)C(=O)O (some centres undefined) has pIC50 that meets 5 or exceeds it?
Met

Could you please find out whether O=C(NC[C@H](NS(=O)(=O)c1ccccc1)C(=O)O)C1=NOC(CCCCNc2ccccn2)C1 (some centres undefined) has pIC50 that meets 5 or exceeds it?
Not met

Could you please find out whether N[C@@H](CNC(=O)C1=NOC(CCCCNc2ncc[nH]2)C1)C(=O)O (some centres undefined) has pIC50 that meets 5 or exceeds it?
Not met

Could you please find out whether Cc1cc(C)c(S(=O)(=O)N[C@H](CNC(=O)C2=NOC(CCCCNc3ncc[nH]3)C2)C(=O)O)c(C)c1 (some centres undefined) has pIC50 that meets 5 or exceeds it?
Not met
